targetOfAssay: OAT1 (Homo sapiens)
Sequence (Q4U2R8 1-563): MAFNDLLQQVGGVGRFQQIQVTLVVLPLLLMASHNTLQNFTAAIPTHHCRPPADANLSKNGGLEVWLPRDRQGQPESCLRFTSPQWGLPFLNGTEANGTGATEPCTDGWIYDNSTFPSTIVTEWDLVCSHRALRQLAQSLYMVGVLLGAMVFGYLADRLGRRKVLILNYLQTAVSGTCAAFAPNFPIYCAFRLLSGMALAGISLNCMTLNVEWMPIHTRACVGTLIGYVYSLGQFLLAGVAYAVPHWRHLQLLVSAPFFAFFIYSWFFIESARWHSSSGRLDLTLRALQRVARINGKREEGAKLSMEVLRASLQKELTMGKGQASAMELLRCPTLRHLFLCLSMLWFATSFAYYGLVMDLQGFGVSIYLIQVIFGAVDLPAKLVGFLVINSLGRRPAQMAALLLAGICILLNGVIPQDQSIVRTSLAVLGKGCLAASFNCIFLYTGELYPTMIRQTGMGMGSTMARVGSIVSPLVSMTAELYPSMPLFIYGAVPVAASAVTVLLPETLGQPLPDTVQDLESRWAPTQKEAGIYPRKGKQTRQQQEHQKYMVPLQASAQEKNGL
assayInfo: Transporter inhibition assay, OAT1
Format: cell-based
conditionInfo: cell line (HEK293 or MDCKII) stably expressing OAT1
valueType: inhibition at 100 μM

Identify inhibition at 100 μM associated with the molecule CN1CCc2cc3c(cc2C1O)OCO3 (stereo not shown) [Hydrastinine, hydrastinine chloride monohydrate]
< 20%

* * *

targetOfAssay: BCRP (Homo sapiens)
Sequence (Q9UNQ0 1-655): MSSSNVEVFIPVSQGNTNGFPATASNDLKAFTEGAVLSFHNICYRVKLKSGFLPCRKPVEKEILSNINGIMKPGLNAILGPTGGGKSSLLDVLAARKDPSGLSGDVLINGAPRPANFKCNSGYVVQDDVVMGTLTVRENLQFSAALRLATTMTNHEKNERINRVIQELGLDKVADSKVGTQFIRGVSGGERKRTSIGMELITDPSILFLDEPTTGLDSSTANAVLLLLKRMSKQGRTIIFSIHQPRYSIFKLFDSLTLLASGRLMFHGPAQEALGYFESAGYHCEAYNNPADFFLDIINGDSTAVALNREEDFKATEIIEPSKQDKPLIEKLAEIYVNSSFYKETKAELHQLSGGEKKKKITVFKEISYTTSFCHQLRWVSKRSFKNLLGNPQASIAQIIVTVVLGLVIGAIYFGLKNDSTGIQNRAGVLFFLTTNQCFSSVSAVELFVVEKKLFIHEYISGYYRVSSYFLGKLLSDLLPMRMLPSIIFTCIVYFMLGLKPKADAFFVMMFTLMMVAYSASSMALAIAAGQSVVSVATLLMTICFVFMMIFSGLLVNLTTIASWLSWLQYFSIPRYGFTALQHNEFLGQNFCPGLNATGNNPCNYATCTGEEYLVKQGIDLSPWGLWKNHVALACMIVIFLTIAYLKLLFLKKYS
assayInfo: Vesicular transport inhibition assay, BCRP
valueType: inhibition at 100 μM

Lab note: record inhibition at 100 μM of CN1CCc2cc3c(cc2C1O)OCO3 (stereo not shown) [Hydrastinine, hydrastinine chloride monohydrate] tested on BCRP (Homo sapiens).
< 20%

* * *

targetOfAssay: OAT3 (Homo sapiens)
Sequence (Q8TCC7 1-542): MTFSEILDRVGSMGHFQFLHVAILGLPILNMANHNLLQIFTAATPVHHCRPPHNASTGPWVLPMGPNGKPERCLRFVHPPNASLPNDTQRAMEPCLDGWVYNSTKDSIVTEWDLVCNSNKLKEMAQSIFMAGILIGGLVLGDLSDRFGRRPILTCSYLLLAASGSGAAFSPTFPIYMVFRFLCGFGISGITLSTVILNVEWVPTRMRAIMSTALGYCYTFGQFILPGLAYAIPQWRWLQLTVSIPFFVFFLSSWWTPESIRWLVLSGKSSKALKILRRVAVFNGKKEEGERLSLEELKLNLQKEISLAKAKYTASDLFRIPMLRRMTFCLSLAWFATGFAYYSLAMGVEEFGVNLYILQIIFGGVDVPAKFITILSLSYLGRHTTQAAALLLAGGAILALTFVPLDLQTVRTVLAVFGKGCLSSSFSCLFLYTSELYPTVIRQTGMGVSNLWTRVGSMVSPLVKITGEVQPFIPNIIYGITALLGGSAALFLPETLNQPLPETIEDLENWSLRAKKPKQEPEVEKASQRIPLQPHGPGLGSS
assayInfo: Transporter inhibition assay, OAT3
conditionInfo: OAT3; isolated alkaloids; mean [95% CI], three technical replicates
valueType: IC50

Identify IC50 associated with the molecule COc1ccc2c(c1OC)C(=O)O[C@@H]2[C@H]1c2cc3c(cc2CCN1C)OCO3 [(−)-β-Hydrastine, (1R,9S)-(−)-β-Hydrastine]
203 µM
